Target: human ApoC3 (human)
Sequence (chain, as listed by the source): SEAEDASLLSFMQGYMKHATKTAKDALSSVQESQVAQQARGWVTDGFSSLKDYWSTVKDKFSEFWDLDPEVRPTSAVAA
Assay: SPR pH 7.4
Label t when Kd is strictly below 0.05 nM; otherwise label f.

Completed entries (count: 5):
Query: Bench note: check whether mAb17 (antibody, V domains shown) VH: QLVESGGGLVQPGGSLRLSCAASGFTFSTYSMRWVRQAPGKGLEWVSSIHTEAGGTAYRDSVKGRFTISRDNAKNTLYLQMNNLRAEDTAVYYCVIAGYSDWGQGTLVTVSS VL: DIVMTQSPLSLPVTPGEPASISCKTSQGLVHSGGKTYFYWFLQKPGQSPQQLIYQVSNRASGVPDRFTGSGSGTDFTLKISRVEAEDAGVYYCAQGTYYPHTFGQGTRLEIK shows Kd below 0.05 nM
Result: t

Query: What do you get for mAb19 (antibody, V domains shown) VH: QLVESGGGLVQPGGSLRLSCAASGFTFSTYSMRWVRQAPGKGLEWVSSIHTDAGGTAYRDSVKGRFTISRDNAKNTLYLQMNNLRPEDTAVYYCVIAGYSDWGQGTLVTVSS VL: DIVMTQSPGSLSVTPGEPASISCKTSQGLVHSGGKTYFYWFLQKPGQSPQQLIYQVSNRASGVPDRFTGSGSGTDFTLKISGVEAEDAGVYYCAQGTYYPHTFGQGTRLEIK ?
Result: t

Query: Input mAb5 (antibody, V domains shown) VH: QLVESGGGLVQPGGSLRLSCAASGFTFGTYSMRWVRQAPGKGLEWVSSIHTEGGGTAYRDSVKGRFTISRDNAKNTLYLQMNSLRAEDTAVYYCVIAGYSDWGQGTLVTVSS VL: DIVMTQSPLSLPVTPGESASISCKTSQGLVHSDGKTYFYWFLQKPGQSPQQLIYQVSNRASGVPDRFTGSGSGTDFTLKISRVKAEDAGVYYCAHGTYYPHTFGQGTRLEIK
Result: f

Query: Follow-up entry: mAb15 (antibody, V domains shown) VH: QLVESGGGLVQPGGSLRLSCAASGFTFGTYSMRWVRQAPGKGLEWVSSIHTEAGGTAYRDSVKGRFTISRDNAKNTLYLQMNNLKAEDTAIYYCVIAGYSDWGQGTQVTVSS VL: DIVMTQSPLSLPVTPGESASISCKTSQGLVHSGGKTYFYWFLQKPGQSPQQLIYQVSNRASGVPDRFTGSGSGTDFTLKISRVEAEDAGVYYCAQGTYYPHTFGSGTRLEIK
Result: t

Query: What about mAb1 (antibody, V domains shown) VH: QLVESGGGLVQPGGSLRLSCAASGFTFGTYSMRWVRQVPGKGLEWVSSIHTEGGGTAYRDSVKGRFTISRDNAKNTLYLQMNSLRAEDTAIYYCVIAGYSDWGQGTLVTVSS VL: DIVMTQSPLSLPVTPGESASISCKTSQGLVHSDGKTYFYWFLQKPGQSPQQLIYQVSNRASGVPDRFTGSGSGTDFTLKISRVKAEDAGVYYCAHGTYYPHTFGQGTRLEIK ?
Result: t

Alright, here's another binder for you.
Query: Does this binder meet the criterion Kd < 0.05 nM? mAb14 (antibody, V domains shown) VH: QLLESGGGLVQPGGSLRLSCAASGFTFGTYSMRWVRQVPGKGLEWVSSIHTEGGGTAYRDSVKGRFTISRDNSKNTLYLQMNSLRAEDTAVYYCVIAGYSDWGQGTLVTVSS VL: DIVMTQSPLSLPVTPGEPASISCKTSQGLVHSDGKTYFYWYLQKPGQSPQLLIYQVSNRASGVPDRFSGSGSGTDFTLKISRVEAEDVGVYYCAHGTYYPHTFGQGTRLEIK
Result: f
